Tested on: HOP-18 NSCLC
Assay: NCI tumour cell line growth inhibition, 48 h
QUANTITY: TGI

MOLECULE: O=c1c2cc(Br)ccc2[nH]c(=S)n1-c1ccc(Br)cc1
TGI: > 100 µM

Q) Dear colleague, I am looking for the recorded TGI of the following molecule: `COc1nc(/C=N/NC(N)=S)nc(OC)n1`
A) > 100 µM

Q) // returns reported TGI for input `COc1ccc(C(=O)/C(=N/Nc2ccccc2)c2ccc(OC)cc2)cc1`
A) > 100 µM

Q) Which TGI is reported for this molecule? `COC(=O)NNc1c([N+](=O)[O-])cnn(-c2ccccc2)c1=O`
A) 6.28 µM

Q) TGI for COc1cc(C2C(Cl)C(=O)N2NC(=O)c2ccc(NC(C)=O)cc2)cc(Br)c1O (stereo not given) ?
A) > 100 µM

* * *

Tested on: T-47D breast
Assay: NCI tumour cell line growth inhibition, 48 h; in the data active means GI50 below about 0.43 µM; inactive means the rest
Can you answer with just one of these options? active, inactive

COMPOUND: CC1(C)CC(=O)C2=C(C1)NC(SSC1=C(C#N)C(c3ccc(Br)cc3)C3=C(CC(C)(C)CC3=O)N1)=C(C#N)C2c1ccc(Br)cc1 (stereo not given)
TARGET_OR_SYSTEM: T-47D breast
GROUP: inactive
//
COMPOUND: COc1cc(C(=O)NC2CCN(C)CC2)ccc1Nc1ncc2c(n1)N(C1CCCC1)CC(F)(F)C(=O)N2C
TARGET_OR_SYSTEM: T-47D breast
GROUP: active
//
COMPOUND: O=C1Nc2cc(Cl)ccc2Oc2cc(Oc3ccccc3)ccc21
TARGET_OR_SYSTEM: T-47D breast
GROUP: inactive

Q) What classification did `Fc1ccc(-c2ncn(C3CCNCC3)c2-c2ccnc(Oc3ccccc3)n2)cc1` end up with in this test?
A) inactive

Q) Record request — test call for `O=C(CCCCC(=O)N/N=C\c1ccccc1Cl)N/N=C\c1ccccc1Cl`
A) inactive

Q) # lookup: test call for O=C(O)c1cc(N/C=C2\C(=O)c3ccccc3OC2O)ccc1O (stereo not given)
A) inactive

Q) Please let me know the test result on file for `O=C(Nc1ncc(Cc2ccccc2)s1)c1ccc2c(c1)OCCO2` .
A) active

Q) Record request — test call for `O=C(N/N=C/c1coc2ccc(Cl)cc2c1=O)c1ccncc1`
A) inactive

* * *

Test system: IGROV1 ovarian
Assay: NCI tumour cell line growth inhibition, 48 h
compounds and their reported GI50

Please review the entries below; each comes with its answer.
STRUCTURE_AS_SMILES: COc1ccc(-c2cn(-c3ccc(Cl)cc3)c(=S)[nH]2)cc1OC
RECORDED_MEASUREMENT: 7.08 µM

STRUCTURE_AS_SMILES: CCOCCc1c(O)nc(SC)[nH]c1=O
RECORDED_MEASUREMENT: > 100 µM

STRUCTURE_AS_SMILES: O=C(CSc1nc2ccc([N+](=O)[O-])cc2[nH]1)Nc1cccc(Cl)c1
RECORDED_MEASUREMENT: 3.1 µM

STRUCTURE_AS_SMILES: C(=N/Nc1ncnc2nc[nH]c12)/c1ccccn1
RECORDED_MEASUREMENT: 2.11 µM

STRUCTURE_AS_SMILES: CCCCCCCCCCCC1=NC(C)(C)CN1CCO
RECORDED_MEASUREMENT: 2.57 µM

Q) Checklist item: GI50 tested on IGROV1 ovarian, entry `COc1ccc(/C=C2\N=C(c3ccccc3)N(c3cc(C(F)(F)F)ccc3Cl)C2=O)cc1OC` , value?
A) 28.4 µM

* * *

Entries and their TGI values follow.
Tested on: MDA-MB-435
Test: NCI tumour cell line growth inhibition, 48 h

See these solved cases before continuing.
MOLECULE: COc1ccc(/C=C/C(=O)c2nc3ccccc3[nH]2)cc1
TGI: > 100 µM
--
MOLECULE: CC1(C)CC(=O)C(CC(C(=O)C(=O)Nc2cc(C(F)(F)F)ccc2Cl)C(=O)c2ccco2)C(=O)C1 (stereo not given)
TGI: > 100 µM
--
MOLECULE: COc1ccc(-c2cn(-c3ccc(Cl)cc3)c(=S)[nH]2)cc1OC
TGI: > 100 µM
--
MOLECULE: CC1(C)CC(=O)C(C(c2cccc(O)c2O)C2C(=O)CC(C)(C)CC2=O)C(=O)C1
TGI: > 100 µM
--
MOLECULE: COc1ccc2nc3cccc([N+](=O)[O-])c3c(NCCN(CCO)CCO)c2c1
TGI: 0.0406 µM
--
MOLECULE: CC/C(Cl)=N\OC(=O)Nc1ccccc1OC(F)(F)F
TGI: 40.7 µM

Q) What value of measured TGI is listed for CCOC(=O)C1c2[nH]c3ccccc3c2CCN1C(=O)c1ccco1 (stereo not given) ?
A) > 10 µM

Q) So what does the record say about TGI for `CCOC(=O)c1c[nH]c2c(OCc3ccccc3)c3ccccc3c(O)c2c1=O` ?
A) 15.6 µM

Q) Which TGI is listed for `COc1ccc(C(=O)/C=C2\c3ccccc3C(=O)N2C)cc1` ?
A) > 100 µM

Q) Entry `O=C(/C=C/C=C/c1ccccc1)c1ccc(Nc2nc(Nc3ccccc3)nc(Nc3ccccc3)n2)cc1` : reported TGI = ?
A) > 100 µM

* * *

Tested on: ACHN renal
Assay: NCI tumour cell line growth inhibition, 48 h
QUANTITY: TGI

A selection of reference data follows.
COMPOUND: c1ccc(-c2nc3sccn3n2)cc1
TGI: > 100 µM
//
COMPOUND: Cn1c(=O)nc2n(-c3ccc(F)cc3)c3ccccc3nc-2c1=O
TGI: 49.7 µM
//
COMPOUND: CN(C)c1ccc(/C=C(\C#N)c2cc3ccccc3n2C)cc1
TGI: > 100 µM

Q) For the compound `N#Cc1ccc(/C=N\N2C(=O)c3ccccc3C2=O)cc1` , what TGI is on record?
A) > 100 µM

Q) Quick one: TGI for `COc1c(C(=O)/C(=N/Nc2ccccc2)C(C)=O)c(O)c(OC)c2occc12` ?
A) > 100 µM

Q) Which measured TGI value corresponds to COc1ccc(OC)c(C2CCCc3c2cnc2nc(N)nc(N)c32)c1 (stereo unspecified) ?
A) > 100 µM

Q) Report TGI for `COCC[N+](CCNC(=O)c1cccc2c(N)c3cccc(C)c3nc12)(CCOC)Cc1ccc([N+](=O)[O-])cc1` please.
A) > 100 µM

Q) For the compound shown here, `COc1ccc(-n2nnc3c(C#N)c(-c4ccccc4)c(C)n3c2=O)cc1` , give the reported TGI.
A) > 100 µM

* * *

Test system: MDA-MB-231 breast
Assay: NCI tumour cell line growth inhibition, 48 h
QUANTITY: TGI (µM)
Express your answer in µM, writing the number without its unit.

Recorded TGI, per entry:
STRUCTURE_AS_SMILES: COc1ccc(-c2cc(-c3ccc(O)cc3)nc3nc(=S)[nH]c(N)c23)cc1
QUANTITY: TGI
RECORDED_MEASUREMENT: 57.8
--
STRUCTURE_AS_SMILES: O=C(Cn1c(C(=O)/C=C/c2ccco2)nc2ccccc21)c1ccc(Cl)cc1
QUANTITY: TGI
RECORDED_MEASUREMENT: 59.8

Q) Bench note: what TGI did `CCCn1cc(C2=C(c3cn(C)c4ccccc34)C(=O)NC2=O)c2ccccc21` show?
A) 16.9

Q) Please give the measured TGI for this compound: `O=C1Nc2cc(Cl)ccc2Oc2cc(Oc3ccccc3)ccc21`
A) 51.4

* * *

# Lookup of reported GI50 keyed by entry
System: TK-10 renal
Assay: NCI tumour cell line growth inhibition, 48 h

Examples from the recorded data:
MOLECULE: C=C1C(=O)O[C@H]2[C@H]1CC/C(C=Nc1ccc(C(F)(F)F)cc1N)=C\CC[C@@]1(C)O[C@@H]21
TARGET_OR_SYSTEM: TK-10 renal
QUANTITY: GI50
RECORDED_MEASUREMENT: 6.14 µM

MOLECULE: CCc1ccc(CCC(=O)Nc2ncc(Cc3cc(Cl)ccc3Cl)s2)o1
TARGET_OR_SYSTEM: TK-10 renal
QUANTITY: GI50
RECORDED_MEASUREMENT: 3.47 µM

MOLECULE: COc1ccc(/C=C2\N=C(c3ccccc3)N(c3cc(C(F)(F)F)ccc3Cl)C2=O)cc1OC
TARGET_OR_SYSTEM: TK-10 renal
QUANTITY: GI50
RECORDED_MEASUREMENT: 93.6 µM

MOLECULE: C=CCCC(O)c1ccc(C(O)CCCCCCCCCCCC)o1 (centres undefined)
TARGET_OR_SYSTEM: TK-10 renal
QUANTITY: GI50
RECORDED_MEASUREMENT: 16.4 µM

MOLECULE: O=C(/C=C/c1ccccn1)c1ccccc1O
TARGET_OR_SYSTEM: TK-10 renal
QUANTITY: GI50
RECORDED_MEASUREMENT: 2.28 µM

MOLECULE: CCCn1cc(C2=C(c3cn(C)c4ccccc34)C(=O)NC2=O)c2ccccc21
TARGET_OR_SYSTEM: TK-10 renal
QUANTITY: GI50
RECORDED_MEASUREMENT: 3.45 µM

Q) // GI50 lookup, key: Cn1cc(C2=C(c3c4n(c5ccccc35)CC(CN)C4)C(=O)NC2=O)c2ccccc21 (centres undefined)
A) 2.94 µM

Q) Fill in the blank: the reported GI50 of CC1(C)CC(=O)C2=C(C1)NC(SSC1=C(C#N)C(c3ccc(Br)cc3)C3=C(CC(C)(C)CC3=O)N1)=C(C#N)C2c1ccc(Br)cc1 (centres undefined) is ____.
A) > 150 µg/mL

Q) Fill in the blank: the reported GI50 of `CN(C)CCCNC(=O)c1cc(NC(=O)CCNC(=O)c2ccc3c(c2)C(=O)c2ccccc2C3=O)cn1C` is ____.
A) > 100 µM

The measured values listed here are drawn from PubChem BioAssay (NCI).
